Origin of values: ChEMBL document CHEMBL2218924

Target: Tyrosine-protein kinase Yes (Homo sapiens) (UniProt P07947)
Sequence (P07947 2-543 limits assumed): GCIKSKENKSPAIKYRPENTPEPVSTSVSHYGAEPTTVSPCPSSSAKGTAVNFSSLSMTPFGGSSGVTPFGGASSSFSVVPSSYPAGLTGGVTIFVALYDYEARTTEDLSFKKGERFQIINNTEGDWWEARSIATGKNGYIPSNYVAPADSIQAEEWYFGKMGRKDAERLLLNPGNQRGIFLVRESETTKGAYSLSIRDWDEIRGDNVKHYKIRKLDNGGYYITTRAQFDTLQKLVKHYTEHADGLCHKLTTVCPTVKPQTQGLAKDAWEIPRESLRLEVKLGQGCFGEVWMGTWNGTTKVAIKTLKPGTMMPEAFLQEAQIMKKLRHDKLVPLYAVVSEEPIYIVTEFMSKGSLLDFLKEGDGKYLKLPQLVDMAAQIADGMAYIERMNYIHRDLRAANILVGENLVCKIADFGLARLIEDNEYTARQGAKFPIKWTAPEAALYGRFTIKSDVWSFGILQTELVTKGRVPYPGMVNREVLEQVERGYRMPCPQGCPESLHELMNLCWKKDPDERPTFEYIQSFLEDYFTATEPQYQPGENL
Details: at 1 µM
readout.type: residual activity (%)
Unit % implied. Number only.

// solved cases for residual activity follow
compound	residual activity [%]
O=c1c2ccccc2[nH]c(=S)n1CCN1CCC(=C(c2ccc(F)cc2)c2ccc(F)cc2)CC1	105
CNc1cc2c(Nc3cccc(Br)c3)ncnc2cn1	67
O=C(O)c1ccc2c3c1cccc3c(=O)n1c3ccccc3nc21	118
O=[N+]([O-])c1ccc(-c2nc(-c3ccc(F)cc3)c(-c3ccncc3)[nH]2)cc1	103
CC(=O)O/N=C1\C(=C2\C(=O)Nc3cc(Br)ccc32)Nc2ccccc21	42
O=C1NC(=O)/C(=C/c2ccc3c(c2)OC(F)(F)O3)S1	117

**Q:** Quick one: residual activity for `COc1cc2ncnc(Nc3ccc(Oc4ccccc4)cc3)c2cc1OC` ?
**A:** 9

**Q:** Quick one: residual activity for `CCN(CC)CCCCN1c2ccccc2Oc2ccc(Cl)cc21` ?
**A:** 106

**Q:** Quick one: residual activity for `Ic1cccc(CSc2nnc(-c3ccncc3)o2)c1` ?
**A:** 96

**Q:** Quick one: residual activity for `O=C(Nc1cccc(Nc2cc(Nc3cccc(C(F)(F)F)c3)ncn2)c1)C1CC1` ?
**A:** 76

---

Molecular target: Mitogen-activated protein kinase kinase kinase 5 (Homo sapiens)
Sequence (whole entry): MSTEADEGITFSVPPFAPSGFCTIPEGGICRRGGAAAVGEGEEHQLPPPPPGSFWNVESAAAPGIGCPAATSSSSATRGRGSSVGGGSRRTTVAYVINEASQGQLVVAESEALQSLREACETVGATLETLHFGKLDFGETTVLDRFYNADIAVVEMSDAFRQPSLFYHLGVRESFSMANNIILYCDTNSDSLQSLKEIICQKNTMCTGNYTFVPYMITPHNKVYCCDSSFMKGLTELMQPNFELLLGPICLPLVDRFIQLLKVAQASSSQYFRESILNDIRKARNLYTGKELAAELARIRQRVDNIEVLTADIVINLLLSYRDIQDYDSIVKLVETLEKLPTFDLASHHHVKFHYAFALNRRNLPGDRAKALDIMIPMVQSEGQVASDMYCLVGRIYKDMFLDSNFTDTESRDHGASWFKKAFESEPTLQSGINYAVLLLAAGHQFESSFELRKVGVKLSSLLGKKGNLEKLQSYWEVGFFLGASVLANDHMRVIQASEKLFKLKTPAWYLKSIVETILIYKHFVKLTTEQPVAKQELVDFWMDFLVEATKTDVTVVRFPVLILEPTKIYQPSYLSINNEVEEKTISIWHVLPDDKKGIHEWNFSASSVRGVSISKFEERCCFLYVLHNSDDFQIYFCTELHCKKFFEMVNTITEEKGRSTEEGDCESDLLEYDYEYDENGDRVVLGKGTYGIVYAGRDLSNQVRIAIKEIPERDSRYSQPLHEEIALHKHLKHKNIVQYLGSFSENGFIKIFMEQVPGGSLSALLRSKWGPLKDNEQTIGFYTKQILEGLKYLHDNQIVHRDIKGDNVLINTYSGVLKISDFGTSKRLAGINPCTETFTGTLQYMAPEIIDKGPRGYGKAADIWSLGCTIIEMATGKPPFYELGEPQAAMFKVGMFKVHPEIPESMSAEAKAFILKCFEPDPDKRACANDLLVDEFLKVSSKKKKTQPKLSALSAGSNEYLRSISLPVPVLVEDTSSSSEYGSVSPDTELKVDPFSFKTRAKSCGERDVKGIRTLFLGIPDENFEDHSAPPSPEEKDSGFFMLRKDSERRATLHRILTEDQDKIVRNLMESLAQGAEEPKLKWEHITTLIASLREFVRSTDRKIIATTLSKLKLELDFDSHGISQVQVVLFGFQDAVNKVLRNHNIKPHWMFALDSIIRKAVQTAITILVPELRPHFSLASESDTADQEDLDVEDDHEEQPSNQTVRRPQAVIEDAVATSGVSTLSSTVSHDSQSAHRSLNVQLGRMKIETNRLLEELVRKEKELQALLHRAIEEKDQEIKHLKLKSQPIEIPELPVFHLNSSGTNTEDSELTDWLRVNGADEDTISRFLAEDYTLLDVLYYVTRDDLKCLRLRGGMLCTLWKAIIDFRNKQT
Conditions: at 1 µM
Reported residual activity values for the following compounds.
Remember to put the unit after the number in your answer.

// solved cases for residual activity follow
cpd.smiles	val
COc1ccc(CNc2nc(N(CCO)CCO)nc3c2ncn3C(C)C)cc1	95%
CNc1cc2c(Nc3cccc(Br)c3)ncnc2cn1	103%
COc1cc2ncnc(Nc3ccc(O)c(Br)c3)c2cc1OC	77%
Nc1n[nH]c2nnc(-c3c(-c4ccccc4)nn4ccccc34)cc12	96%

**Q:** Quick one: residual activity for `O=C(O)c1ccc2c3c1cccc3c(=O)n1c3ccccc3nc21` ?
**A:** 90%

**Q:** Quick one: residual activity for `CN(C)c1ccc(/C=C2\C(=O)Nc3ccccc32)cc1` ?
**A:** 92%

**Q:** Quick one: residual activity for `Cc1cncc2cccc(S(=O)(=O)N3CCCN(C(=O)CN)C[C@H]3C)c12` ?
**A:** 98%

**Q:** Quick one: residual activity for `Cc1cc(Nc2nc(-c3ccccc3)nc3ccccc23)n[nH]1` ?
**A:** 94%

**Q:** Quick one: residual activity for `Nc1nc(Nc2ccc(S(N)(=O)=O)cc2)nn1C(=S)Nc1c(F)cccc1F` ?
**A:** 1%

**Q:** Quick one: residual activity for `O=C1NC(=O)/C(=C/c2ccc3c(c2)OC(F)(F)O3)S1` ?
**A:** 85%

**Q:** Quick one: residual activity for `Cc1cccc(-c2[nH]c(C(C)(C)C)nc2-c2ccc3c(c2)OCO3)n1` ?
**A:** 83%

**Q:** Quick one: residual activity for `O=C(Nc1cccc(Nc2cc(Nc3cccc(C(F)(F)F)c3)ncn2)c1)C1CC1` ?
**A:** 104%

**Q:** Quick one: residual activity for `Nc1ccc2ncnc(NCCc3ccc(Oc4ccccc4)cc3)c2c1` ?
**A:** 87%

**Q:** Quick one: residual activity for `O=[N+]([O-])c1ccc(-c2nc(-c3ccc(F)cc3)c(-c3ccncc3)[nH]2)cc1` ?
**A:** 96%

**Q:** Quick one: residual activity for `Cc1nc(-c2ccccc2)c(-c2ccncc2)o1` ?
**A:** 100%

**Q:** Quick one: residual activity for `Oc1n[nH]c2nnc(-c3c(-c4ccccc4)nn4ccccc34)cc12` ?
**A:** 111%
